Values from patent US20250388664A1

# Target or test system: T1, truncated cTfR1 of SEQ ID NO:123 (cynomolgus monkey, UniProt Q5RDH6 122-760 (Pongo abelii entry))
# T1 construct: also called cynomolgus TfR1
# T1 chain: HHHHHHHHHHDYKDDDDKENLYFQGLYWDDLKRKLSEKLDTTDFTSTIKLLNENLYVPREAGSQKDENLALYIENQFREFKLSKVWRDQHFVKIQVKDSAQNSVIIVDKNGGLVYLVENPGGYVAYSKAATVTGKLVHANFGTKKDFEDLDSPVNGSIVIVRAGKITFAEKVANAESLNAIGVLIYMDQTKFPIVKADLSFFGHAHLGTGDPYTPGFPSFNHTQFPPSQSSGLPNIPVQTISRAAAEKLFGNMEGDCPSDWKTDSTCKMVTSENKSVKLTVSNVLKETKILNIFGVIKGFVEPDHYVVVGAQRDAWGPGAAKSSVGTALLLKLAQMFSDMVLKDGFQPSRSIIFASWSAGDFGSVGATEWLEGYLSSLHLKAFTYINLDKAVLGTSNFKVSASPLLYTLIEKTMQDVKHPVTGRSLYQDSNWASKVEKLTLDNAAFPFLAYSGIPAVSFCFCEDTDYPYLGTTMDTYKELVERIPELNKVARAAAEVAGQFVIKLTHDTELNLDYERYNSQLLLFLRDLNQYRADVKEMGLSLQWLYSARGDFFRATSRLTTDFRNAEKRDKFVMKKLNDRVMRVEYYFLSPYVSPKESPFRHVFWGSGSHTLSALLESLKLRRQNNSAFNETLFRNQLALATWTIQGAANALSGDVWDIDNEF
# Experiment description: SPR, FLAG-captured TfR1, scFv injected, 1:1 fit

{"columns": ["Binder", "kon"],
 "data": [
  ["h26D3 HC6 DS V11R (scFv, also called h26D3 DS V11R) scFv: HHHHHHGGGGSGGGGSGGGGSGGGGSDIQMTQSPSSVSASVGDRVTITCKSSQSLLYSTNQKNYLAWYQQKPGKAPKLLIYWASTRESGVPSRFSGSGSGTDFTLTISSLQPEDFATYYCQQYFIYPRTFGCGTKVEIKGGGGSGGGGSGGGGSGGGGSEVQLVQSGAERKKPGSSVKVSCKASGYIFTDYNMDWVRQAPGQCLEWIGDINPDADTTSYNEKFKGRATLTVDKSTSTAYMELSSLRSEDTAVYYCARGGYSGSSYYHPMDYWGQGTLVTVSS", "51500 M⁻¹ s⁻¹"]
]}
